System: Pseudomonas
Test: Antibacterial activity against methicillin- resistant Pseudomonas spp. clinical isolate 6 assessed as reduction in bacterial growth incubated for 24 hrs by CLSI broth microdilution method
Type: functional
Provide the reported MIC of each item.
# value in µg/mL; strip the unit string

Look up MIC: `CC(C)(C)c1cc2c(OCC(=O)NCCC[N+](C)(C)Cc3ccccc3)c(c1)Sc1cc(C(C)(C)C)cc(c1OCC(=O)NCCC[N+](C)(C)Cc1ccccc1)Sc1cc(C(C)(C)C)cc(c1OCC(=O)NCCC[N+](C)(C)Cc1ccccc1)Sc1cc(C(C)(C)C)cc(c1OCC(=O)NCCC[N+](C)(C)Cc1ccccc1)S2.[Cl-].[Cl-].[Cl-].[Cl-]` 64

Look up MIC: `CCCCCCCC[N+](C)(C)CCCNC(=O)COc1c2cc(C(C)(C)C)cc1Sc1cc(C(C)(C)C)cc(c1OCC(=O)NCCC[N+](C)(C)CCCCCCCC)Sc1cc(C(C)(C)C)cc(c1OCC(=O)NCCC[N+](C)(C)CCCCCCCC)Sc1cc(C(C)(C)C)cc(c1OCC(=O)NCCC[N+](C)(C)CCCCCCCC)S2.[Cl-].[Cl-].[Cl-].[Cl-]` 16
